- RUN_DESCRIPTION: self-splicing fitness, log relative to wild type (ln ratio); higher = more splicing; Tetrahymena group I intron in knt gene, E. coli kanamycin selection, DiMSum; sequences stand for … in CUCUCU…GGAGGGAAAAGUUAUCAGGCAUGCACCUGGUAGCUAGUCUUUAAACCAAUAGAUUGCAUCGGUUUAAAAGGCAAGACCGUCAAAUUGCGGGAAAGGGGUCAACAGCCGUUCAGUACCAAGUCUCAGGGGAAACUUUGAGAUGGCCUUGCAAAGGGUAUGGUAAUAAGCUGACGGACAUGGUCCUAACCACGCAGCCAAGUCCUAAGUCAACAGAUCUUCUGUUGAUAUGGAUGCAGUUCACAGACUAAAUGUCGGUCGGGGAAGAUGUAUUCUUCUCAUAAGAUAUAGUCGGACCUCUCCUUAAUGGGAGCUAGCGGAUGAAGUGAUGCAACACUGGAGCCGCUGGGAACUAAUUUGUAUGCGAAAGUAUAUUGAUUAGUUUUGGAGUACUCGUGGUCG;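 also: selection with 25 µg/mL kanamycin versus none on LB agar overnight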
- EXPERIMENTAL_SETUP: 37 °C
Listing of entries alongside the reported self-splicing fitness (ln).
Output: the number by itself.

Known self-splicing fitness (ln) results, listed for orientation:
GAUUAGCAAUAUUACGCGAU :: -1.27
CAAGAGCAAUAUUACGGACA :: -2
CCAGAGCAAUAUUACGAAGG :: -1.92
GUACAGCAAUAUUACGCACC :: -2.35

The record that follows has no self-splicing fitness (ln) shown yet.
self-splicing fitness (ln) in this record for CAGCAGCAAUAUUACGAGGA : -2.42
